Reported IC50 values for the following compounds.
molecular target: AR (Homo sapiens, UniProt P10275); assay: Hormone receptor signaling pathway selectivity: AR; type: cell-based; details: with DHT; read-out: AR with ligand DHT (inhibition IC50)
Sequence (P10275 whole entry): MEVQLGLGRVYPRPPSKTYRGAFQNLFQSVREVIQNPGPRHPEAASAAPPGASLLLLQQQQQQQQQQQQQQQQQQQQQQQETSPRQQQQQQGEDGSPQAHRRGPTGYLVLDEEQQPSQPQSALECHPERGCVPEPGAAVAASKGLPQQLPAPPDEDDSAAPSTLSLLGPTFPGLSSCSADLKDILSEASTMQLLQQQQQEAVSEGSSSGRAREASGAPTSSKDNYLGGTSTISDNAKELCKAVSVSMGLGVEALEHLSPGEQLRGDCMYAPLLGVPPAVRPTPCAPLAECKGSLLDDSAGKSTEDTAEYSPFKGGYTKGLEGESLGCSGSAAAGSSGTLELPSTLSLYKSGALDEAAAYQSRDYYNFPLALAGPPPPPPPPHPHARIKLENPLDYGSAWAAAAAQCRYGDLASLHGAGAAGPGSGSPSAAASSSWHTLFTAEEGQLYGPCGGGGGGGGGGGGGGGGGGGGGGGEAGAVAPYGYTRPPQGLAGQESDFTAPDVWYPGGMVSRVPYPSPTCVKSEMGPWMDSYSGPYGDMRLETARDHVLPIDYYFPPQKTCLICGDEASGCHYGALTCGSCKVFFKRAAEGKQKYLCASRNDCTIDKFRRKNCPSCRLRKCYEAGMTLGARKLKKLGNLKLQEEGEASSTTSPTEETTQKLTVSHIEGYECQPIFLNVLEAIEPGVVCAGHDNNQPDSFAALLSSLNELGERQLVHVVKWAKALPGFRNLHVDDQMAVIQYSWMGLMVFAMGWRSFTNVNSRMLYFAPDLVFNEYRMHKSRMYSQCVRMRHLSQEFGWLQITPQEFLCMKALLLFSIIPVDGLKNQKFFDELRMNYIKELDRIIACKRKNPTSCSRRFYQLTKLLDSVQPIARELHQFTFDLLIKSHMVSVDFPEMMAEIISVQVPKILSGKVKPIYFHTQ

Please review the entries below; each comes with its answer.
CC(C)=CCCC(C(=O)O)C1CC(O)C2(C)C3=CCC4C(C)(CCC(O)C4(C)C)C3=CCC12C (stereo not drawn) = > 80 µM
C=C(CCC(C(=O)O)[C@H]1C[C@H](OC(C)=O)[C@@]2(C)C3=CC[C@H]4C(C)(C)[C@@H](O)CC[C@]4(C)C3=CC[C@]12C)C(C)C (stereo partly drawn) = > 80 µM

Next:
Exercise: Recall the reported IC50 of C=C(CCC(C(=O)O)C1CCC2(C)C3=C(CCC12C)C1(C)CCC(O)C(C)(C)C1CC3)C(C)C (stereo not drawn) when tested on AR (Homo sapiens, UniProt P10275).
Key: > 80 µM

Values were extracted from patent US20220409631A1.
